Hello, the source for this data is patent US10906915B2, in case you need it.

- target_desc: human PDE4D catalytic domain (UniProt no. Q08499) (Homo sapiens (Human), UniProt Q08499)
- Sequence (Q08499 380-740 limits assumed): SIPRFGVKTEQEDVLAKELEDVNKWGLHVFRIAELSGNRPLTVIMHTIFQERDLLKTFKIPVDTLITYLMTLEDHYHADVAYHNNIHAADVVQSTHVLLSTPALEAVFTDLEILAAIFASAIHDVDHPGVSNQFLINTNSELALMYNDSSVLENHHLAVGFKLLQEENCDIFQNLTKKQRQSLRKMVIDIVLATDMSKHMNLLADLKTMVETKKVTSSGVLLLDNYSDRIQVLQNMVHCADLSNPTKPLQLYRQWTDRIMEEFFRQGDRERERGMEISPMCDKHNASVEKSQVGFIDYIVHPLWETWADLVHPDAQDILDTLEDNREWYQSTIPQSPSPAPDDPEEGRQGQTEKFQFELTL
- assay_notes: PDE4 assay (TR-FRET, FAM-cAMP cleavage)
- Format: biochemical
- experimental_conditions: read-out: PDE4 IC50 range
pIC50: −log10 of the molar value.
quantity: pIC50

The examples below pair each entry with its known result.
[
  {
    "chem_smiles": "CCc1nn(CC(C)(C)COC(=O)c2ccccc2C(F)(F)F)c2c1C(=O)NCC1(CCOCC1)C2",
    "pIC50": "> 7.00"
  },
  {
    "chem_smiles": "CCc1nn(C[C@H](C)COC(=O)c2cccc(OC)c2)c2c1C(=O)NCC1(CCOCC1)C2",
    "pIC50": "> 7.00"
  },
  {
    "chem_smiles": "CCc1nn(CC(C)(C)COC(=O)c2ccc(C(=O)N3CCNCC3)cc2)c2c1C(=O)NCC1(CCOCC1)C2",
    "pIC50": "> 7.00"
  },
  {
    "chem_smiles": "CCc1nn(CC(C)(C)COC(=O)c2ccc(S(=O)(=O)N3CCN(C(C)=O)CC3)cc2)c2c1C(=O)NCC1(CCOCC1)C2",
    "pIC50": "> 7.00"
  },
  {
    "chem_smiles": "CCc1nn(CC(C)(C)COC(=O)c2ccc(C(F)(F)F)cc2)c2c1C(=O)NCC1(CCOCC1)C2",
    "pIC50": "> 7.00"
  }
]

Measured pIC50 for this entry CCc1nn(C[C@H](C)COC(=O)c2ccc(C)cc2)c2c1C(=O)NCC1(CCOCC1)C2 on human PDE4D catalytic domain (UniProt no. Q08499) (Homo sapiens (Human), UniProt Q08499): > 7.00

Measured pIC50 for this entry CCc1nn(CC(C)(C)COC(=O)c2ccc(S(C)(=O)=O)cc2)c2c1C(=O)NCC1(CCOCC1)C2 on human PDE4D catalytic domain (UniProt no. Q08499) (Homo sapiens (Human), UniProt Q08499): > 7.00

* * *

Catalogue of pIC50 values
- target_desc: human PDE4D catalytic domain (UniProt no. Q08499) (Homo sapiens (Human), UniProt Q08499)
- assay_notes: PDE4 assay (TR-FRET, FAM-cAMP cleavage)
- Format: biochemical
- experimental_conditions: human PDE4D catalytic domain; molar concentration giving 50% inhibition of substrate cleavage; read-out: PDE4 IC50 range
pIC50: −log10 of the molar value.

The examples below pair each entry with its known result.
[
  {
    "compound": "CCc1nn(CCCOC(=O)c2ccc(OC)c(Cl)c2)c2c1C(=O)NCC1(CCOCC1)C2",
    "pIC50": "> 7.00"
  },
  {
    "compound": "CCc1nn(CCCOC(=O)c2ccc(C)c(Cl)c2)c2c1C(=O)NCC1(CCOCC1)C2",
    "pIC50": "> 7.00"
  }
]

// pIC50 value for CCc1nn(CCCOC(=O)c2ccc(C(=O)N3CCN(C(C)=O)CC3)cc2)c2c1C(=O)NCC1(CCOCC1)C2 : 6.30 to 7.00

// pIC50 value for CCc1nn(C[C@@H](C)COC(=O)c2cccc(OC)c2)c2c1C(=O)NCC1(CCOCC1)C2 : > 7.00

// pIC50 value for CCc1nn(CCCOC(=O)C(C)C)c2c1C(=O)NCC1(CCOCC1)C2 : 6.30 to 7.00

// pIC50 value for CCc1nn(CCCOC(=O)c2cccc(F)c2)c2c1C(=O)NCC1(CCOCC1)C2 : > 7.00

// pIC50 value for CCc1nn(CCCOC(=O)c2ccc(F)c(C#N)c2)c2c1C(=O)NCC1(CCOCC1)C2 : > 7.00
